system: Calu-3; assay: cell viability relative to DMSO; higher = less toxic; conditions: 72 h; 10000 nM
// values below are reported cell viability
Report the figure in % without appending any unit label.

# COMPOUND, QUANTITY UNIT, cell viability
data = [
    ("C[C@]12CC[C@H](O)CC1=CC[C@@H]1[C@@H]2CC[C@]2(C)C(c3cccnc3)=CC[C@@H]12", "%", 100),
]

Query: Data request, read-out cell viability, for CC1(CN2CCC(n3c(=O)[nH]c4ccccc43)CC2)OCc2ccccc2-n2cccc21 (configuration not stated) [zaldaride]
Reply: 94.5

Query: # iterate: COc1ccc(Cl)cc1C(=O)NCCc1ccc(C(=O)O)cc1 [meglitinide]
Reply: 114

Query: Repeat for the following compound: O=C(NCc1ccccn1)Nc1nnc(-c2ccco2)o1
Reply: 107

Query: Same lookup for CNC(=O)CN1CCC(Oc2cc3c(Nc4cccc(Cl)c4F)ncnc3cc2OC)CC1 , please.
Reply: 22.5

Query: Moving on to COCCOc1cnc2ccn([C@H](C)c3nnc4c(F)cc(-c5cnn(C)c5)cn34)c(=O)c2c1
Reply: 95.2

Query: Also need CC1=CC(=C(c2ccc(N)cc2)c2ccc(N)cc2)C=CC1=N , thanks.
Reply: 19.5

Query: Same read-out for O=C(/C=C/c1cccc(F)c1)NC1CC1 [cinflumide] ?
Reply: 96.4

Query: Try this compound too: CC(C)(C)NCC(O)c1cc(Cl)c(N)c(Cl)c1 (configuration not stated)
Reply: 97.4

* * *

Reported drug sensitivity score by item:
system: Vero E6; assay: drug sensitivity score (DSS) for viability; higher = more toxic; extreme values may be limits of the assay; settings: 72 h
API doc: respond with a numeric literal and nothing else, no unit.

Recorded results for 2 molecules are shown here.
# SMI, drug sensitivity score
measured = [
    ("Oc1cc(Cl)ccc1Oc1ccc(Cl)cc1Cl", 0),
    ("NCCc1cc(O)c(O)cc1O", 0),
]

Let us move to another entry and its drug sensitivity score.
Query: Request the reported drug sensitivity score associated with FC(F)(F)Oc1ccc2nc(-c3ccc(OCCOCCOc4ccc(-c5nc6ccc(OC(F)(F)F)cc6[nH]5)nc4)cn3)[nH]c2c1
Reply: 5.6

* * *

Property: cell viability; scope: individual molecules
test system: Vero E6; test: cell viability relative to DMSO; higher = less toxic; details: 72 h; 1 nM
Write the number in % without appending the unit.

Recorded results for 6 molecules are shown here.
# MOLECULE, TARGET ENTITY, QUANTITY UNIT, cell viability
records = [
    ("CC(C)(C)CC(C)(C)c1cc(Cc2cc(C(C)(C)CC(C)(C)C)cc(-n3nc4ccccc4n3)c2O)c(O)c(-n2nc3ccccc3n2)c1", "Vero E6", "%", 103),
    ("Cc1nnc2n1-c1sc(CCC(=O)N3CCOCC3)cc1C(c1ccccc1Cl)=NC2", "Vero E6", "%", 111),
    ("c1ccc2c(CC3=NCCN3)cccc2c1", "Vero E6", "%", 102),
    ("CC(=O)[C@@]12O[C@](C)(c3ccccc3)O[C@@H]1C[C@H]1[C@@H]3CCC4=CC(=O)CC[C@]4(C)[C@H]3CC[C@@]12C [algestone-acetophenide]", "Vero E6", "%", 101),
    ("CC(=O)c1ccc(NS(C)(=O)=O)c(Oc2ccc(F)cc2F)c1", "Vero E6", "%", 98.3),
    ("CCC(CC)Nc1cc(C)nc(Oc2c(C)cc(C)cc2C)c1C", "Vero E6", "%", 96.8),
]

Now look at this entry.
Query: For the molecule CC/C(=C(\c1ccccc1)c1ccc(OCCN(C)C)cc1)c1ccccc1 , what cell viability is on record?
Reply: 98.9
